Here, each record is paired with measured Percent Effect data.
tested on: Trypanosoma cruzi; assay: Trypanosoma cruzi phosphomannomutase and mannose-1-phosphate guanylyltransferase assay; format: functional; design: scale not given: direction of the effect not stated beside the values; conditions: 10 µM
Give the value in % but do not write % after it.

Below, each entry is followed by its recorded Percent Effect result.
compound	experimental.target	Percent Effect (%)
CN(C)C(=O)c1ccc2c(c1)N(C)C(CC(=O)NC(C)(C)CO)CO2 (stereo unspecified)	Trypanosoma cruzi	-2.82
CCCc1nc(CN2CCN(Cc3noc(CCC)n3)CC2)no1	Trypanosoma cruzi	-0.718
CCCNC(=O)C1CCN(Cc2csc(C(C)(C)C)n2)CC1	Trypanosoma cruzi	-4.44
CC1CN(C(=O)CN(Cc2ccco2)C2CC2)CCO1 (stereo unspecified)	Trypanosoma cruzi	-3.62
CCc1nc(NCCCn2cccn2)c2c(n1)c(C)nn2C	Trypanosoma cruzi	0.197
Cc1cc(C)n(C2CN(CC(O)COc3ccc(F)cc3)C2)n1 (stereo unspecified)	Trypanosoma cruzi	-1.12
CC(=O)NCC1CCN(C(=O)c2csc(-c3ccc(C)cc3C)n2)CC1	Trypanosoma cruzi	1.58
Cc1csc(C2CCCN(C(=O)c3cnc[nH]3)C2)n1 (stereo unspecified)	Trypanosoma cruzi	3.11
O=C(CN(Cc1ccccc1)CC1CCOCC1)Nc1nccs1	Trypanosoma cruzi	-4.17
CS(=O)(=O)NC[C@]12COC[C@H]1CN(CC1CCCC1)C2	Trypanosoma cruzi	-4.79

Find the recorded Percent Effect belonging to O=C1CC(c2ccc(C(=O)O)cc2)c2ncn(-c3ccccc3)c2N1 (stereo unspecified) and report it.
0.786

###

target: Proteasome subunit beta (Trypanosoma cruzi); assay: Trypanosoma cruzi proteasome chymotrypsin-like activity (TcProtChymo) assay.; format: functional; parameters: scale not given: in the data most compounds retested in dose-response had high values; settings: 9.37 µM
Please enter t where Percent Effect is greater than or equal to 10%, and f where it is lower.

Solved cases below.
compound	answer.label
COc1cc(CCC(=O)NC2CC2)ccc1OCC(F)(F)F	f
CC(=O)N1CCN(Cc2nnc(C(C)(C)C)o2)CC1	t
COc1c(CNCc2cccc(Cn3ccnc3)c2)c(C)nn1C	t
O=C1[C@H]2CN(CC3CC3)C[C@H]2CN1Cc1cccc(F)c1	t
CCOCC(O)CN1CCN(C(=O)c2cc(F)ccc2C)CC1 (stereo unspecified)	f

Given CC(=O)Nc1nc(C(=O)N2CCCC(n3ccnc3)C2)cs1 (stereo unspecified) , state whether its Percent Effect is at least 10%.
f

###

species on record: Homo sapiens; experiment: To identify inhibition of the IFN signalling (Jak-Stat) pathway via expression of an eGFP reporter gene under the control of an IFN-stimulated response element (ISRE) containing MxA promoter.; assay type: functional; parameters: scale not given: direction of the effect not stated beside the values; conditions: 30 µM
Below, each entry is listed with its recorded Percent Effect.
# value in %; strip the unit string

compound	observed.result
CC1c2ncc(CN3CCN(C)CC3)n2CCN1Cc1cccnc1 (stereo not drawn)	-9.88
CCN1CCC(c2nc3ccc(NC(C)C)cn3n2)CC1	-12.5
Cc1ccc(CN2Cc3c(C(=O)N(C)C)nn(C)c3C2)s1	-12.5

What value of Percent Effect has been reported for the following compound? "Fc1cnc(N2CCn3cc(CNc4ccccn4)nc3C2)nc1"
7.84

Now the same for "CC(C)C(=O)N1CCN(C(=O)CCc2nnc(-c3ccccc3)o2)CC1"
16.1
